ASSAY_OVERVIEW: Cytoprotective activity against H2O2-induced cytotoxicity in mouse C2 cells assessed as cell viability at 15 uM after 24 hrs by MTT assay (reference value: 83.1 +/- 3.5%)
Assay type: functional
REPORTED_CONDITIONS: C2, 24 h, read-out: Activity
# viability at 15 µM annotations
# output: number + unit

COMPOUND	OBSERVED_VALUE
COc1cc(/C=C/C(=O)CC(=O)/C=C/c2ccc(O)c(OC)c2)ccc1O [CURCUMIN]	90.2%
CN1CC(O)(c2ccc(-c3ccccc3)cc2)Oc2ccccc21 (centres undefined)	97.1%

The compound identified as CN1CC(O)(c2ccc(-c3ccccc3)cc2)Sc2ccccc21 (centres undefined) registered its viability at 15 µM at 87.1%

The compound identified as COc1ccc2[nH]cc(CCNC(C)=O)c2c1 [MELATONIN] registered its viability at 15 µM at 92.5%

###

ASSAY_OVERVIEW: Cytotoxic activity against mouse C2 cells assessed as cell viability at 15 uM after 24 hrs by MTT assay (reference value: 100%)
Format: cell-based
REPORTED_CONDITIONS: read-out: Activity
MEASURED_PARAMETER: viability at 24 h, 15 µM (%)
API: value field is a number in %; no unit string.

COMPOUND	OBSERVED_VALUE
COc1ccc2[nH]cc(CCNC(C)=O)c2c1 [MELATONIN]	96.9

Lab note: next compound to report on.
The compound identified as CN1CC(O)(c2ccc(-c3ccccc3)cc2)Oc2ccccc21 (configuration not stated) registered its viability at 24 h, 15 µM at 98.1

###

ASSAY_OVERVIEW: Antioxidant activity assessed as DPPH free radical scavenging activity after 30 mins by spectrophotometry
Assay type: physicochemical
MEASURED_PARAMETER: IC50
# output: number + unit

COMPOUND	IC50
CN1CC(O)(c2ccc(-c3ccccc3)cc2)Sc2ccccc21 (stereo not drawn)	271 µM
CN1CC(O)(c2ccc(-c3ccccc3)cc2)Oc2ccccc21 (stereo not drawn)	119 µM

Lab note: next compound to report on.
The compound identified as Oc1ccc(/C=C/c2cc(O)cc(O)c2)cc1 registered its IC50 at 96 µM

###

ASSAY_OVERVIEW: Cytotoxic activity against mouse C2 cells assessed as cell viability at 50 uM after 24 hrs by MTT assay (reference value: 100%)
Assay type: cell-based
REPORTED_CONDITIONS: read-out: Activity
MEASURED_PARAMETER: viability at 24 h, 50 µM (%)
API: value field is a number in %; no unit string.

The molecule identified as COc1cc(/C=C/C(=O)CC(=O)/C=C/c2ccc(O)c(OC)c2)ccc1O [CURCUMIN] registered its viability at 24 h, 50 µM at 83.8

###

ASSAY_OVERVIEW: Cytotoxic activity against mouse C2 cells assessed as cell viability at 30 uM after 24 hrs by MTT assay (reference value: 100%)
Assay type: cell-based
REPORTED_CONDITIONS: read-out: Activity
MEASURED_PARAMETER: viability at 24 h, 30 µM
# output: number + unit

The compound identified as CN1CC(O)(c2ccc(-c3ccccc3)cc2)Sc2ccccc21 (stereo unspecified) registered its viability at 24 h, 30 µM at 99.5%
